Tested on: C. elegans strain PE254
Test: Follow-up 11-point re-test, C. elegans LSC viability
Type: in vivo, Caenorhabditis elegans
Settings: 11-point titration, day 7, GFP area and worm number
reported property: activity on C. elegans viability in follow-up (in words)

molecule	target desc	readout value
O=C(/C=C\n1cnc(-c2cc(C(F)(F)F)cc(C(F)(F)F)c2)n1)NNc1cnccn1 [Selinexor]	C. elegans strain PE254	moderately active
O=C(Oc1ccc([N+](=O)[O-])cc1)N1CCC(C(O)(c2ccc3c(c2)OCO3)c2ccc3c(c2)OCO3)CC1	C. elegans strain PE254	moderately active
O=C(/C=C\n1cnc(-c2cc(C(F)(F)F)cc(C(F)(F)F)c2)n1)NNc1ccccn1 [Verdinexor, verdinexor]	C. elegans strain PE254	moderately active
